- System: Staphylococcus aureus ATCC 29213
- Assay info: Broth microdilution MIC assay, quality control strain (Example 2)
- Format: cell-based
- Reported conditions: ATCC29213, S. aureus ATCC 29213 (QC), CAMHB
Measured parameter: MIC (µg/mL)
Return type: number; implicit unit µg/mL.

The examples below pair each entry with its known result.
Endpoint output: MIC of C=C(C)C1CCC(C)=CC1c1c(O)cc(CCCCC)cc1O (stereo not shown) . Value?
0.5

Then what about the molecule CC[C@H]1OC(=O)[C@H](C)[C@@H](O[C@H]2C[C@@](C)(OC)[C@@H](O)[C@H](C)O2)[C@H](C)[C@@H](O[C@@H]2O[C@H](C)C[C@H](N(C)C)[C@H]2O)[C@](C)(O)C[C@@H](C)CN(C)[C@H](C)[C@@H](O)[C@]1(C)O ?
0.5

Then what about the molecule O=C(O)c1cn(C2CC2)c2cc(N3CCNCC3)c(F)cc2c1=O ?
0.25

Shift focus to the following entry.
Endpoint output: MIC of CO/N=C(\C(=O)N[C@@H]1C(=O)N2C(C(=O)O)=C(CSc3nc(=O)c(=O)[nH]n3C)CS[C@H]12)c1csc(N)n1 . Value?
2

Data origin: patent US20230015949A1
